Data provenance: ChEMBL document CHEMBL1961873

assayed target: Leucine-rich repeat serine/threonine-protein kinase 2 (Homo sapiens) (UniProt Q5S007);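 further: mean percent inhibition of LRRK2 measured in the GSK PKIS kinase inhibitor set screen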
Sequence (Q5S007 whole entry): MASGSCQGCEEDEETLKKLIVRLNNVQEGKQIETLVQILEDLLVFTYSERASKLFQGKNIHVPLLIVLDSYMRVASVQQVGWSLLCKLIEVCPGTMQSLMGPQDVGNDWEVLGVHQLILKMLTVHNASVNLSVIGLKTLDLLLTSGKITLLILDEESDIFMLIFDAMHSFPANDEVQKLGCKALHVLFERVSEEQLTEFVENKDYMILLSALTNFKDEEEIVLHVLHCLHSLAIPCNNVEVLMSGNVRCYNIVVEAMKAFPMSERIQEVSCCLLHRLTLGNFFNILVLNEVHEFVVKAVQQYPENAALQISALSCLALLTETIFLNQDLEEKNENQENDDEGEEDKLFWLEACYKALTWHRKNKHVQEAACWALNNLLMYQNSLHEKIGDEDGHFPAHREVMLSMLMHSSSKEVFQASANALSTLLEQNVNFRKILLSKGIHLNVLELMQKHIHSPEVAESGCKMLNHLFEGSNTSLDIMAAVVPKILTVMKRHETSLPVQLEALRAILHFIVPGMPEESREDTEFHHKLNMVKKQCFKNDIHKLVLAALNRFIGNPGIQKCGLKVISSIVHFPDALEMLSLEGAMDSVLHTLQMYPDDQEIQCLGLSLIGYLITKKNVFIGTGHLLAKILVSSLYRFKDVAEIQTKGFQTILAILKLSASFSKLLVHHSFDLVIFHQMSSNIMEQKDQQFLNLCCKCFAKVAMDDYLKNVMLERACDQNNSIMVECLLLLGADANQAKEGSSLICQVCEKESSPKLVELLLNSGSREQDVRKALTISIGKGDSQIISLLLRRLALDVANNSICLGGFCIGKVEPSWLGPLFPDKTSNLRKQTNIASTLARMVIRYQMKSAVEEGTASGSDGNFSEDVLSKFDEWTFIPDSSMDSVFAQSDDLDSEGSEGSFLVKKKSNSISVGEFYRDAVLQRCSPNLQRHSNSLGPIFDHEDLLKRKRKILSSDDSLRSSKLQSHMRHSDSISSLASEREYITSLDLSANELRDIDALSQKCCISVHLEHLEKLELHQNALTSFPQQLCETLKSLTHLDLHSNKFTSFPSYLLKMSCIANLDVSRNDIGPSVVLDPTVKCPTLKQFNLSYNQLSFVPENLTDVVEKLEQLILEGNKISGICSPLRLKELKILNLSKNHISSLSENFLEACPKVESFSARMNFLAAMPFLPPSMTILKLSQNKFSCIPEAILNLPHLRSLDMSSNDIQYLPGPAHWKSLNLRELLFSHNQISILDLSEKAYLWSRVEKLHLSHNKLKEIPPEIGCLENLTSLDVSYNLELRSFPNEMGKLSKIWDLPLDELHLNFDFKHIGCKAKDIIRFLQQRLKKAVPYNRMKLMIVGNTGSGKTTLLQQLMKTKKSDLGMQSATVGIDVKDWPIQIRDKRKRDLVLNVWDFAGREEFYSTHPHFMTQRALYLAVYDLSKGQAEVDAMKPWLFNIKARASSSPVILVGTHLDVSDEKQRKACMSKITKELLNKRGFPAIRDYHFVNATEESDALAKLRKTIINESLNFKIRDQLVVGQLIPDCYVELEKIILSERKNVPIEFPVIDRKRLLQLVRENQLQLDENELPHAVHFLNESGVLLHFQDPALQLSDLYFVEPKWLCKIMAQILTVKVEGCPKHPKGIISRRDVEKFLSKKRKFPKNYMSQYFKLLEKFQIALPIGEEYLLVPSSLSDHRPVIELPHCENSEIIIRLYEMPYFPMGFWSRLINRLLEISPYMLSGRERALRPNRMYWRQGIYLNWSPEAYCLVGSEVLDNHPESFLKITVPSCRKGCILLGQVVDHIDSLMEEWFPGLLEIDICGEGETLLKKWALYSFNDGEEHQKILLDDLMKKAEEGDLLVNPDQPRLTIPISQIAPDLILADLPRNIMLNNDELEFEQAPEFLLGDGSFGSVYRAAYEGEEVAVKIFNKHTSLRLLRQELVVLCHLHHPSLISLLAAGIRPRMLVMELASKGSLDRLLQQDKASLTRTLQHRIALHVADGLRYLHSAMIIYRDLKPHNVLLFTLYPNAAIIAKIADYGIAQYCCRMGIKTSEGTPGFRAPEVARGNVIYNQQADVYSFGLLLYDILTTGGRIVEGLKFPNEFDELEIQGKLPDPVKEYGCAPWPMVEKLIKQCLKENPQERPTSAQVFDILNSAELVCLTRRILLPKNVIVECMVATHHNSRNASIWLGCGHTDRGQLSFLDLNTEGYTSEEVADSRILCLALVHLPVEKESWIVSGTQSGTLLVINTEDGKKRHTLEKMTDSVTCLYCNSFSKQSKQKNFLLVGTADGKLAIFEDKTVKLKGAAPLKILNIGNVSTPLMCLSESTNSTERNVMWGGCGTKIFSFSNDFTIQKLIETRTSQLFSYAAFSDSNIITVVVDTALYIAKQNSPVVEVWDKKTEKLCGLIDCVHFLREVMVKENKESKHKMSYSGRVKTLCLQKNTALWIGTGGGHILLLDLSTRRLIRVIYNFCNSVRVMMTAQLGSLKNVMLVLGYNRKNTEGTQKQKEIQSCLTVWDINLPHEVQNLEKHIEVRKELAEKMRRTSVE
condition: at 1 µM
Assign class by inhibition: not lower than 10% means y; lower than 10% means n.

In [3]: df
Out[3]:
                             molecule_smiles  class_name
 0  Fc1ccc(-c2ncn(C3CCNCC3)c2-c2ccnc(Oc3ccccc3)n2)cc1           n
 1  NC(=O)c1sc(-n2cnc3cc(C(F)(F)F)ccc32)cc1OCc1ccccc1Br           n
 2            Nc1nonc1-c1nc2cnccc2n1C1CCCCC1           y
 3   COc1cc(C=NNc2ncnc3c2cnn3Cc2ccccc2)ccc1O           n
 4  Cc1cc(-c2ccco2)cc(C)c1/C=C/c1cncc(-c2nn[nH]n2)c1           n
 5  CCn1c(-c2nonc2N)nc2c(C#CC(C)(C)O)ncc(OC[C@@H]3CCCN3)c21           n
 6  NS(=O)(=O)c1ccc(-c2ccc3c(NC(=O)C4CC4)n[nH]c3c2)cc1           n
 7  NS(=O)(=O)c1ccc(N/C=C2\C(=O)Nc3ccc4ncsc4c32)cc1           y
 8  COc1cccc(COc2cc(-n3cnc4ccccc43)sc2C(N)=O)c1           y
 9  CCn1c(-c2nonc2N)nc2c(C#CC(C)(C)O)ncc(OCC3CCNCC3)c21           n
10  CCn1c(-c2nonc2N)nc2c(C#CC(C)(C)O)nc(O[C@@H](CN)c3ccccc3)cc21           y
11  COc1cc2c(cc1Nc1nc(Nc3ccsc3C(N)=O)c3cc[nH]c3n1)N(C(=O)CN(C)C)CCC2           y

----------
assayed target: Serine/threonine-protein kinase Nek2 (Homo sapiens) (UniProt P51955);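 further: reported values are mean percent inhibition of NEK2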
Sequence (whole entry): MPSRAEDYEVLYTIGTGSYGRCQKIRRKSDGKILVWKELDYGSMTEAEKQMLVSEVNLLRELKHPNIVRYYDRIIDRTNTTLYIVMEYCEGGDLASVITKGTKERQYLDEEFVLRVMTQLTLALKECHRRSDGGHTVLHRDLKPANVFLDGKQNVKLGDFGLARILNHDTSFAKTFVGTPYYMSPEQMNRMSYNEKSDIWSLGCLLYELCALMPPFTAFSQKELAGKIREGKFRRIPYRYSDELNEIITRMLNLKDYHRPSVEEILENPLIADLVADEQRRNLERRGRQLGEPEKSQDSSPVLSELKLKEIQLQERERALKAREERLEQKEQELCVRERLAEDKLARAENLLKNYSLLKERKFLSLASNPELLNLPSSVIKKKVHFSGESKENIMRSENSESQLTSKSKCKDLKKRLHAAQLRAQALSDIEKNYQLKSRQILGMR
condition: at 1 µM
assay readout: inhibition (%)

                            molecule_smiles  numeric_value
0  CCn1c(-c2nonc2N)nc2c(C#CC(C)(C)O)ncc(OC[C@@H]3CCCN3)c21           0.91
1  COc1cc2c(cc1Nc1nc(Nc3ccsc3C(N)=O)c3cc[nH]c3n1)N(C(=O)CN(C)C)CCC2           6.67
2  CCn1c(-c2nonc2N)nc2c(C#CCN)ncc(OCCCN)c21          -4.57
3  NC(=O)c1sc(-n2cnc3cc(C(F)(F)F)ccc32)cc1OCc1ccccc1Br           3.63
4  Cc1cc(-c2ccco2)cc(C)c1/C=C/c1cncc(-c2nn[nH]n2)c1           1.44
5  COc1cccc(-n2ncc3c(N/N=C/c4ccncc4)ncnc32)c1           5.47
6   COc1cc(C=NNc2ncnc3c2cnn3Cc2ccccc2)ccc1O          -5.26
